Tested on: CCRIS mutagenicity, Ames/micronucleus/aberration tests
assay_text: CCRIS mutagenicity studies
run_parameters: Test System: AMES SALMONELLA TYPHIMURIUM; Strain/Indicator: TA98; Metabolic Activation: RAT, LIVER, S-9, AROCLOR 1254; Method: PREINCUBATION
Activity calls are given as the source filed them. How the calls were made is not given here.
assay_readout: mutagenic call

Sample records with mutagenic call:
compound=O=C(CCCN1CCC(O)(c2ccc(Cl)cc2)CC1)c1ccc(F)cc1 tested_system="CCRIS mutagenicity, Ames/micronucleus/aberration tests" assay_readout="mutagenic call" value_observed="inactive; negative"
compound=CC(=O)NC[C@@H](O)COc1cccc2ccccc12 tested_system="CCRIS mutagenicity, Ames/micronucleus/aberration tests" assay_readout="mutagenic call" value_observed="inactive; negative"
compound=Cc1nn(C)c(N)c1C(=O)c1ccccc1F tested_system="CCRIS mutagenicity, Ames/micronucleus/aberration tests" assay_readout="mutagenic call" value_observed="active; positive"
compound=CC(=O)Nc1ccc(Oc2ccc(NO)cc2)cc1 tested_system="CCRIS mutagenicity, Ames/micronucleus/aberration tests" assay_readout="mutagenic call" value_observed="active; positive"
compound=Clc1ccccc1Cl tested_system="CCRIS mutagenicity, Ames/micronucleus/aberration tests" assay_readout="mutagenic call" value_observed="inactive; negative"
compound=CCC(C)=O tested_system="CCRIS mutagenicity, Ames/micronucleus/aberration tests" assay_readout="mutagenic call" value_observed="inactive; negative"
compound=Cc1cc(N(CCO)CCO)ccc1N=Nc1ccc(N)cc1 tested_system="CCRIS mutagenicity, Ames/micronucleus/aberration tests" assay_readout="mutagenic call" value_observed="inactive; negative"
compound=O=P(O)(O)O tested_system="CCRIS mutagenicity, Ames/micronucleus/aberration tests" assay_readout="mutagenic call" value_observed="inactive; negative"

Give the measured mutagenic call of COc1cc(C(C)=O)cc(OC)c1O . inactive; negative

====

System: CCRIS mutagenicity, Ames/micronucleus/aberration tests
assay_text: CCRIS mutagenicity studies
run_parameters: Test System: AMES SALMONELLA TYPHIMURIUM; Strain/Indicator: TA1537; Metabolic Activation: RAT LIVER S-9, PHENOBARBITAL AND BETA-NAPHTHOFLAVONE; Method: PREINCUBATION
Calls of active or inactive are those of the source. How the calls were made is not given here.
Outcome (select one): active, inactive

Study these solved cases before continuing.
compound=NNc1ccccc1 category=active
compound=CC(C)(C)CC(C)(C)c1ccc(O)cc1 category=inactive
compound=O=C1c2ccccc2C(=O)c2ccccc21 category=inactive

Hello, I am checking results. What call was entered for O=C=Nc1cccc2c(N=C=O)cccc12 ? inactive

Repeat for the following compound: O=[N+]([O-])c1cccc2cccc([N+](=O)[O-])c12 active

====

System: CCRIS mutagenicity, Ames/micronucleus/aberration tests
assay_text: CCRIS mutagenicity studies
run_parameters: Test System: AMES SALMONELLA TYPHIMURIUM; Strain/Indicator: TA102; Metabolic Activation: RAT, LIVER, S-9, PHENOBARBITAL AND 5,6-BENZOFLAVONE; Method: PREINCUBATION
The source made the active and inactive calls. The rule behind the calls is not given here.
Returns: one label drawn from yes (1) = active, no (0) = inactive

Some entries whose results are on file:
structure_string=CC1=CC(=O)C(C(C)C)=CC1=O category="no (0)"
structure_string=O=C1C=CC(=O)c2ccccc21 category="yes (1)"

# fetch the recorded call for O=C1C=CC(=O)C=C1 here no (0)

And then O=C1C=CC(=O)c2c(O)c(Cl)c(Cl)c(O)c21 , what is it? yes (1)

Field entry: O=C1C=CC(=O)C(c2ccccc2)=C1 no (0)

Now the molecule O=C1C=C(Nc2ccccc2)C(=O)c2ccccc21 no (0)

Another: O=c1ccc(=O)c2c(=O)c(Cl)c(Cl)c(=O)c1=2 yes (1)

Values compiled from PubChem BioAssay AID1259407.
